- testSettings: 337.15 K; 100 kPa; Liquid; Vibrating tube method
valueKind: mass density (kg/m3)
One number for each entry, in kg/m3.

compoundStructureString: C[N+](CCO)(CCO)CCO.O=S(=O)([N-]S(=O)(=O)C(F)(F)F)C(F)(F)F
unitTag: kg/m3
mass density: 1531.9
//
compoundStructureString: CC[N+](CCO)(CCO)CCO.O=S(=O)([N-]S(=O)(=O)C(F)(F)F)C(F)(F)F
unitTag: kg/m3
mass density: 1495.7
//
compoundStructureString: CCCC[N+](C)(C)CC.O=S(=O)([N-]S(=O)(=O)C(F)(F)F)C(F)(F)F
unitTag: kg/m3
mass density: 1337.8

Kindly give each listed record's mass density.
1. CC[N+](C)(CCO)CCO.O=S(=O)([N-]S(=O)(=O)C(F)(F)F)C(F)(F)F
2. CCCC[N+](CCO)(CCO)CCO.O=S(=O)([N-]S(=O)(=O)C(F)(F)F)C(F)(F)F
3. CC[N+](C)(C)CCOC.O=S(=O)([N-]S(=O)(=O)C(F)(F)F)C(F)(F)F
4. CC[N+](C)(C)CCCO.O=S(=O)([N-]S(=O)(=O)C(F)(F)F)C(F)(F)F

Response:
[1480.6, 1422.9, 1394.9, 1429.6]

* * *

- testSettings: 323.15 K; 100 kPa; Liquid; Concentric cylinders viscometry
Give viscosity for every item shown.
Numbers only, in mPa·s.

compoundStructureString: C[N+](CCO)(CCO)CCO.O=S(=O)([N-]S(=O)(=O)C(F)(F)F)C(F)(F)F
valueObserved: 122

compoundStructureString: CCCC[N+](C)(C)CC.O=S(=O)([N-]S(=O)(=O)C(F)(F)F)C(F)(F)F
valueObserved: 34.2

compoundStructureString: CC[N+](C)(C)CCOC.O=S(=O)([N-]S(=O)(=O)C(F)(F)F)C(F)(F)F
valueObserved: 24

compoundStructureString: CC[N+](C)(CCO)CCO.O=S(=O)([N-]S(=O)(=O)C(F)(F)F)C(F)(F)F
valueObserved: 71.7

compoundStructureString: CC[N+](C)(C)CCCO.O=S(=O)([N-]S(=O)(=O)C(F)(F)F)C(F)(F)F
valueObserved: 49.5

compoundStructureString: CCCC[N+](CCO)(CCO)CCO.O=S(=O)([N-]S(=O)(=O)C(F)(F)F)C(F)(F)F
valueObserved: 182

Now for the molecule whose viscosity we want.
Prompt: Look up and state reported viscosity for `CC[N+](CCO)(CCO)CCO.O=S(=O)([N-]S(=O)(=O)C(F)(F)F)C(F)(F)F`
Response: 158.6

* * *

- testSettings: 329.15 K; 100 kPa; Liquid; Vibrating tube method
Give mass density for every item shown.
Answers are plain numbers, in kg/m3.

Before answering, review these 3 worked examples.
compoundStructureString: CC[N+](CCO)(CCO)CCO.O=S(=O)([N-]S(=O)(=O)C(F)(F)F)C(F)(F)F
unitTag: kg/m3
mass density: 1502.6

compoundStructureString: CC[N+](C)(C)CCOC.O=S(=O)([N-]S(=O)(=O)C(F)(F)F)C(F)(F)F
unitTag: kg/m3
mass density: 1402.2

compoundStructureString: CCCC[N+](CCO)(CCO)CCO.O=S(=O)([N-]S(=O)(=O)C(F)(F)F)C(F)(F)F
unitTag: kg/m3
mass density: 1429.8

Kindly give each listed record's mass density.
1. CC[N+](C)(C)CCCO.O=S(=O)([N-]S(=O)(=O)C(F)(F)F)C(F)(F)F
2. CC[N+](C)(CCO)CCO.O=S(=O)([N-]S(=O)(=O)C(F)(F)F)C(F)(F)F
3. C[N+](CCO)(CCO)CCO.O=S(=O)([N-]S(=O)(=O)C(F)(F)F)C(F)(F)F
4. CCCC[N+](C)(C)CC.O=S(=O)([N-]S(=O)(=O)C(F)(F)F)C(F)(F)F

Response:
1436.4
1487.5
1538.9
1344.6
